biological target: Alpha-2A adrenergic receptor (Homo sapiens); type: functional, cell-based
Each entry below lists one item and its recorded AC50 value.

O=C1Nc2ccc(Cl)cc2C(c2ccccc2Cl)=NC1O (configuration not stated) = > 10 µM
CCCc1cc(=O)[nH]c(=S)[nH]1 = > 10 µM
CC(c1cc2ccccc2s1)N(O)C(N)=O (configuration not stated) = > 10 µM
S=P(N1CC1)(N1CC1)N1CC1 = > 30 µM
CC[C@@H](CO)NC(=O)[C@@H]1C=C2c3cccc4c3c(cn4C)C[C@H]2N(C)C1 [METHYSERGIDE] = > 10 µM

Q: Supply AC50 value. Item: `O=C1c2ccccc2C(=O)C1c1ccccc1`
Result: > 10 µM

Q: Supply AC50 value. Item: CC1(C)S[C@@H]2[C@H](NC(=O)C(C(=O)O)c3ccccc3)C(=O)N2[C@H]1C(=O)O (some centres not stated)
Result: > 30 µM

Q: Supply AC50 value. Item: `CC/C=C\C/C=C\C/C=C\C/C=C\C/C=C\CCCC(=O)OCC`
Result: > 30 µM

Q: Supply AC50 value. Item: `O=C(NCCO[N+](=O)[O-])c1cccnc1`
Result: > 30 µM

---

target: Melanocortin receptor 3 (Homo sapiens, UniProt P41968); further: assay procedure not described here
Sequence (P41968 whole entry): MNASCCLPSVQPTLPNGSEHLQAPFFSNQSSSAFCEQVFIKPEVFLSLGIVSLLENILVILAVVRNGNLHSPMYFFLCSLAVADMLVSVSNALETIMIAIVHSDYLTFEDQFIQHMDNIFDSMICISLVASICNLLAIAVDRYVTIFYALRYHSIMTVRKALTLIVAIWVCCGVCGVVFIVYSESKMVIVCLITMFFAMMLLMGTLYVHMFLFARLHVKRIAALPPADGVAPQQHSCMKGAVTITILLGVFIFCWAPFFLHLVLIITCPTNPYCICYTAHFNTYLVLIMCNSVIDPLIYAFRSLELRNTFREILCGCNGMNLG
recorded_endpoint: AC50

Observe how each entry below is paired with its result.
CCCN(CCC)S(=O)(=O)c1ccc(C(=O)O)cc1 = > 10 µM
CN[C@]1(c2ccccc2Cl)CCCCC1=O = > 30 µM
C[C@]12C/C(=C/O)C(=O)C[C@@H]1CC[C@@H]1[C@@H]2CC[C@@]2(C)[C@H]1CC[C@]2(C)O = > 30 µM
CCCCCCCN(CC)CCCC(O)c1ccc(NS(C)(=O)=O)cc1 (stereo not given) [IBUTILIDE] = > 30 µM

Moving on to the next molecule.
Q: Supply AC50 value. Item: `O=C(O)c1cccnc1Nc1cccc(C(F)(F)F)c1`
Result: > 10 µM

---

Each entry below lists one item and its recorded AC50 value.
target: 5-hydroxytryptamine receptor 2B (Homo sapiens); type: functional, cell-based; further: assay procedure not described here
Sequence (P41595 whole entry): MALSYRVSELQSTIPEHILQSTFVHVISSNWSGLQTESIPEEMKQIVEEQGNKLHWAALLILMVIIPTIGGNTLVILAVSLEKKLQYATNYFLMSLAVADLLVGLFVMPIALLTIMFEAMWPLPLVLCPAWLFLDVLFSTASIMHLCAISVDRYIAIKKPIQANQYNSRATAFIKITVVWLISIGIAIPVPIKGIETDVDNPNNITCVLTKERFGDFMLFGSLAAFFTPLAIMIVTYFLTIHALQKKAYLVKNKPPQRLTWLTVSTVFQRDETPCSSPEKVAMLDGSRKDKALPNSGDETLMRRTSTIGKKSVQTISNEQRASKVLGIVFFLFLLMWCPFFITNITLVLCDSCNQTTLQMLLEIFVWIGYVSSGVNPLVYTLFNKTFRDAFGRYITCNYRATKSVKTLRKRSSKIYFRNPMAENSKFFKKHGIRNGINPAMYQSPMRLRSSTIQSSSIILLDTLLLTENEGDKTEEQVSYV

Observe how each entry below is paired with its result.
CCCCOc1ccc(C(=O)CCN2CCCCC2)cc1 = > 10 µM
O=C1c2cccc3c2[C@H](CCC3)CN1[C@@H]1CN2CCC1CC2 = > 30 µM
CC1(C)S[C@@H]2[C@H](NC(=O)C(C(=O)O)c3ccccc3)C(=O)N2[C@H]1C(=O)O (stereo partly specified) = > 30 µM
CC1=C(/C=C/C(C)=C/C=C/C(C)=C/CO)C(C)(C)CCC1 = > 10 µM
CC(Cc1cccc(C(F)(F)F)c1)NCCOC(=O)c1ccccc1 (stereo unspecified) = 0.495 µM
CO/N=C(\C(=O)N[C@@H]1C(=O)N2C(C(=O)O)=CCS[C@H]12)c1csc(N)n1 = > 30 µM
CCC[C@@H]1C[C@@H](C(=O)N[C@@H]([C@H]2O[C@H](SC)[C@H](O)[C@@H](O)[C@H]2O)[C@@H](C)O)N(C)C1 = > 30 µM
CC(C(=O)O)c1ccc2oc(-c3ccc(Cl)cc3)nc2c1 (stereo unspecified) = > 30 µM
C[C@@H]1C[C@H]2[C@@H]3CCC4=CC(=O)C=C[C@]4(C)[C@@]3(F)[C@@H](O)C[C@]2(C)[C@@]1(O)C(=O)CO = > 10 µM
CCCC(C)(COC(N)=O)COC(N)=O [MEPROBAMATE] = > 10 µM

Q: Specify the recorded AC50 for `CCCN1CCCC[C@H]1C(=O)Nc1c(C)cccc1C` , system: 5-hydroxytryptamine receptor 2B (Homo sapiens). Further: assay procedure not described here.
Result: > 30 µM

---

target: Muscarinic acetylcholine receptor M2 (Homo sapiens, UniProt P08172); further: assay procedure not described here
Sequence (P08172 whole entry): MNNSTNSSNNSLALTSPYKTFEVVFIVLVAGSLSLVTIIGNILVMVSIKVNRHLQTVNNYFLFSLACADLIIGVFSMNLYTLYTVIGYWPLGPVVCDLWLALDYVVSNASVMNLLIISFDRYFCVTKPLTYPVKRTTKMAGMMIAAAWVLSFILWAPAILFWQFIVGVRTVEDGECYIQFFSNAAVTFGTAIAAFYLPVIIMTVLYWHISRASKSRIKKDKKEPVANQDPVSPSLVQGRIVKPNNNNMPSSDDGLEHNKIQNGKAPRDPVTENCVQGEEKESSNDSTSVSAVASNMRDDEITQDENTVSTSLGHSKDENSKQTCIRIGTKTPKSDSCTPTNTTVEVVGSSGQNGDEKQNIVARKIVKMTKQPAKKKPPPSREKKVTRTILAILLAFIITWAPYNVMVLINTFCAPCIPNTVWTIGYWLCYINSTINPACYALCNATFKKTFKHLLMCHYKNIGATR
recorded_endpoint: AC50

Observe how each entry below is paired with its result.
CC(=O)OCC(=O)[C@@]1(O)CC[C@H]2[C@@H]3CCC4=CC(=O)CC[C@]4(C)[C@H]3[C@@H](O)C[C@@]21C [HYDROCORTISONE ACETATE] = > 30 µM
O=C(NNCS(=O)(=O)O)c1ccncc1 [METHANIAZIDE] = > 30 µM
CC1(C)S[C@@H]2[C@H](/N=C/N3CCCCCC3)C(=O)N2[C@H]1C(=O)O [AMDINOCILLIN] = > 30 µM
Cc1cc(=O)oc2cc(O)ccc12 [HYMECROMONE] = > 30 µM
Cc1ncc2c(c1O)COC2c1ccc(Cl)cc1 (configuration not stated) [CICLETANINE] = > 30 µM
C=C1CC[C@H](O)C/C1=C/C=C1\CCC[C@]2(C)[C@@H]([C@H](C)CCCC(C)C)CC[C@@H]12 [CHOLECALCIFEROL] = > 30 µM
COC(=O)[C@H]1[C@H]2C[C@@H]3c4[nH]c5cc(OC)ccc5c4CCN3C[C@H]2C[C@@H](OC(=O)c2cc(OC)c(OC)c(OC)c2)[C@@H]1OC [RESERPINE] = > 30 µM
C[C@@H]1C[C@H]2[C@@H]3C[C@H](F)C4=CC(=O)C=C[C@]4(C)[C@@]3(F)[C@@H](O)C[C@]2(C)[C@@]1(OC(=O)c1ccco1)C(=O)SCF [FLUTICASONE FUROATE] = > 30 µM

Q: Supply AC50 value. Item: `CC[C@@H]1C[C@]1(NC(=O)[C@@H]1C[C@@H]2CN1C(=O)[C@H](C(C)(C)C)NC(=O)OCC(C)(C)CCCCc1cccc3c1CN(C3)C(=O)O2)C(=O)NS(=O)(=O)C1CC1`
Result: > 30 µM

Q: Supply AC50 value. Item: C=N[C@@H](C(=O)N[C@@H]1C(=O)N2[C@@H]1SC(C)(C)[C@@H]2C(=O)O)c1ccccc1 [METAMPICILLIN]
Result: > 30 µM

Q: Supply AC50 value. Item: O=C(O)Cc1ccccc1Oc1ccc(Cl)cc1Cl [FENCLOFENAC]
Result: > 30 µM

Q: Supply AC50 value. Item: CC(C(=O)O)c1cccc(Oc2ccccc2)c1 (configuration not stated) [FENOPROFEN]
Result: > 30 µM

Q: Supply AC50 value. Item: COC(=O)[C@@H](N)Cc1ccc(O)c(O)c1 [MELEVODOPA]
Result: > 30 µM

Q: Supply AC50 value. Item: N#Cc1ccc(Oc2ccc3c(c2)COB3O)cc1 [CRISABOROLE]
Result: > 30 µM

Q: Supply AC50 value. Item: C=CC(=O)Nc1cccc(Oc2nc(Nc3ccc(N4CCN(C)CC4)cc3)nc3ccsc23)c1 [OLMUTINIB]
Result: 1.64 µM

Q: Supply AC50 value. Item: CCCCC(CC)CN1CN(CC(CC)CCCC)CC(C)(N)C1 (configuration not stated) [HEXETIDINE]
Result: 3.18 µM

Q: Supply AC50 value. Item: CC(CN1c2ccccc2Sc2ccccc21)N(C)C (configuration not stated) [PROMETHAZINE]
Result: 0.03 µM

---

Each entry below lists one item and its recorded AC50 value.
Molecular target: Alpha-2A adrenergic receptor (Homo sapiens)
Sequence (P08913 whole entry): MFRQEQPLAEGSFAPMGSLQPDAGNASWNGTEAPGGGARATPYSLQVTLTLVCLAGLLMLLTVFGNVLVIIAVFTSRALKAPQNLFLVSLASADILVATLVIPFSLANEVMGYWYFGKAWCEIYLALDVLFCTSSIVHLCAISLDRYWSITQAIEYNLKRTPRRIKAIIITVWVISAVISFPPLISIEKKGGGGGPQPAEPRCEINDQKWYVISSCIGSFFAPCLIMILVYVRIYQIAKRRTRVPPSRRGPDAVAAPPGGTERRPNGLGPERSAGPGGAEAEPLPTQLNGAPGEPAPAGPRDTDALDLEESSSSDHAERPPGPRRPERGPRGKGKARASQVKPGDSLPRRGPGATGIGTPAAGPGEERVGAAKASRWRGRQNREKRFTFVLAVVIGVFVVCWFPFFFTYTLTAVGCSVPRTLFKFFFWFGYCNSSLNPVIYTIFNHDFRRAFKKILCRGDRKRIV
Assay type: functional, cell-based

COc1cc2[nH]c(C)c(CCN3CCN(c4ccccc4)CC3)c2cc1OC = 7.4 µM

Q: Supply AC50 value. Item: Cc1ccccc1N1C(=O)c2cc(S(N)(=O)=O)c(Cl)cc2NC1C (stereo unspecified)
Result: > 10 µM

Q: Supply AC50 value. Item: `CC(C)NC(=N)NC(=N)Nc1ccc(Cl)c(Cl)c1`
Result: > 30 µM

Q: Supply AC50 value. Item: `CCOc1nc2cccc(C(=O)O)c2n1Cc1ccc(-c2ccccc2-c2nnn[nH]2)cc1`
Result: > 30 µM

---

Target: UniProt P0DMS8
Sequence (P0DMS8 whole entry): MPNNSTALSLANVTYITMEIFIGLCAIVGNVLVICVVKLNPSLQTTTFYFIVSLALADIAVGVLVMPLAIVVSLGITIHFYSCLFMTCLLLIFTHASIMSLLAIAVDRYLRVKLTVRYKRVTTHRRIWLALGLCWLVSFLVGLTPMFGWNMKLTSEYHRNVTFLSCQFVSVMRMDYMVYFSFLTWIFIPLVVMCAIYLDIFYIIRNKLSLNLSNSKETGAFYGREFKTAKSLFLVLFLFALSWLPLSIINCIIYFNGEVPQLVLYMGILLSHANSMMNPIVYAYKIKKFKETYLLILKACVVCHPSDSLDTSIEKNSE
recorded_endpoint: AC50

Observe how each entry below is paired with its result.
NS(=O)(=O)c1cc2c(cc1Cl)N=C(CSCc1ccccc1)NS2(=O)=O [BENZTHIAZIDE] = > 10 µM
CN(C)Cc1nnc2n1-c1ccc(Cl)cc1C(c1ccccc1)=NC2 = > 10 µM
COc1cc(C(=O)OCc2cccc(COC(=O)c3cc(OC)c(OC)c(OC)c3)n2)cc(OC)c1OC = > 30 µM
CC(C)C[C@H](NC(=O)[C@@H](O)[C@H](N)Cc1ccccc1)C(=O)O = > 30 µM
CCN1CCCC1CNC(=O)c1cc(S(=O)(=O)CC)ccc1OC (stereo not drawn) [SULTOPRIDE] = > 30 µM
O=C1Nc2ccc(Cl)cc2C(c2ccccc2Cl)=NC1O (stereo not drawn) = > 30 µM

Q: Supply AC50 value. Item: `CCCN(CCC)S(=O)(=O)c1ccc(C(=O)O)cc1`
Result: > 10 µM

Q: Supply AC50 value. Item: `O=C(/C=C/c1cccc(S(=O)(=O)Nc2ccccc2)c1)NO`
Result: > 30 µM
